# System: Vero E6 infected with SARS-CoV-2
# Assay info: inhibition of SARS-CoV-2 cytopathic effect; higher = more antiviral protection, active = above 15
# Run conditions: 1 nM; 48 h
Quick reference: inhibition of SARS-CoV-2 cytopathic effect of the listed items.
Measure: inhibition of SARS-CoV-2 cytopathic effect

Compound: O=S(=O)(N[C@H]1CC[C@@](c2cc(F)ccc2F)(S(=O)(=O)c2ccc(Cl)cc2)CC1)C(F)(F)F
Result: 2.61% (inactive)

Compound: CC(=O)O[C@H]1CC[C@@]2(C)C(=CC[C@@H]3[C@@H]2CC[C@]2(C)C(=O)CC[C@@H]32)C1 [prasterone-acetate]
Result: -0.78% (inactive)

Compound: Cc1cccc(C)c1OCC(=O)N[C@@H](Cc1ccccc1)[C@@H](O)C[C@H](Cc1ccccc1)NC(=O)[C@H](C(C)C)N1CCCNC1=O [lopinavir]
Result: 1.3% (inactive)

Compound: O=c1[nH]c2ccccc2n1CCCN1CCC(n2c(=O)[nH]c3cc(Cl)ccc32)CC1 [domperidone]
Result: 0.36% (inactive)

Compound: FC(F)c1nc2ccccc2n1-c1nc(N2CCOCC2)nc(N2CCOCC2)n1
Result: -2.17% (inactive)

Compound: CSc1nc2ccc3nc(NC(=O)C(c4ccccc4)c4ccccc4)sc3c2s1
Result: 1.77% (inactive)

Compound: C[C@@H]([C@H](O)c1ccc(O)cc1)N1CCC(Cc2ccccc2)CC1 (racemic) [ifenprodil]
Result: 2.09% (inactive)

Compound: O=C1CCCCCCCCCCCCCCO1 [oxacyclohexadecan-2-one]
Result: -0.21% (inactive)

Compound: Clc1ccc2c(NCCNc3ccnc4cc(Cl)ccc34)ccnc2c1
Result: -2.64% (inactive)

Compound: O=[N+]([O-])/C=C/c1ccc2c(c1)OCO2 [3,4-methylenedioxy-beta-nitrostyrene]
Result: -1.15% (inactive)

Compound: CCOc1nc2cccc(C(=O)OC(C)OC(=O)OC3CCCCC3)c2n1Cc1ccc(-c2ccccc2-c2nn[nH]n2)cc1 (stereo not given) [candesartan-cilexetil]
Result: -0.98% (inactive)

Compound: CCOC(=O)OC(C)OC(=O)[C@@H]1N2C(=O)[C@@H](NC(=O)[C@H](N)c3ccccc3)[C@H]2SC1(C)C (stereo not given in full) [bacampicillin]
Result: 8.5% (inactive)

Compound: O=[N+]([O-])c1cc(O)c(O)c([N+](=O)[O-])c1
Result: -0.65% (inactive)

Compound: CCOc1ccc(-c2nc(-c3cccc4c3CCC4NCCO)no2)cc1OCC (stereo not given)
Result: -0.52% (inactive)

Compound: C[C@]12Cc3c[nH]nc3C[C@@H]1CC[C@@H]1[C@@H]2CC[C@@]2(C)[C@H]1CC[C@]2(C)O [stanozolol]
Result: -3.58% (inactive)

Compound: Cc1ccc2c(-c3ccccc3)nc(=O)n(C(C)C)c2c1 [proquazone]
Result: 0.68% (inactive)

Compound: CN(C)CC(=O)Nc1ccc2[nH]c(=O)c3ccccc3c2c1
Result: 1.34% (inactive)

Compound: COc1cccc(C2(O)CCCCC2CN(C)C)c1 (stereo not given)
Result: 3.29% (inactive)

Compound: C[C@H](CSC(=O)c1ccccc1)C(=O)N1C[C@@H](Sc2ccccc2)C[C@H]1C(=O)O [zofenopril-calcium]
Result: 0.93% (inactive)

Compound: CCCn1c(=O)c2[nH]c(-c3cnn(Cc4cccc(C(F)(F)F)c4)c3)nc2n(CC)c1=O
Result: 1.43% (inactive)

Compound: CC(C)=CC[C@@H](O)C1=CC(=O)c2c(O)ccc(O)c2C1=O [Shikonin]
Result: 0.59% (inactive)

Compound: CCC[C@H](N[C@H]1CCc2cc(F)cc(F)c2C1)C(=O)Nc1cn(C(C)(C)CNCC(C)(C)C)cn1
Result: 2.54% (inactive)

Compound: NC(N)=O [urea]
Result: -3.97% (inactive)

Compound: CN(C)CC[C@H](CSc1ccccc1)Nc1ccc(S(=O)(=O)NC(=O)c2ccc(N3CCN(Cc4ccccc4-c4ccc(Cl)cc4)CC3)cc2)cc1[N+](=O)[O-]
Result: -0.41% (inactive)

Compound: CCCOc1ccc(Br)cc1-c1cc(-c2ccc(Cl)cc2)[nH]c1-c1ccncc1
Result: -1.64% (inactive)

Compound: Cc1nccn1CC1CCc2c(c3ccccc3n2C)C1=O (stereo not given) [ondansetron]
Result: 3.14% (inactive)

Compound: Cc1cc(C)c(S(=O)(=O)n2cc(C)cc2C)c(C)c1
Result: -0.12% (inactive)

Compound: COc1ccc(C(=O)/C(Cc2cc(OC)c(OC)c(OC)c2)=C(\C(=O)O)c2ccc3c(c2)OCO3)cc1
Result: -2.66% (inactive)

Compound: c1cc(Nc2cc(C3CC3)n[nH]2)nc(Nc2ccc3[nH]cnc3c2)n1
Result: -2.31% (inactive)

Compound: COc1ccc(C2(CNC(=O)c3ccc(NC(=O)c4ccco4)cc3)CCOCC2)cc1
Result: 1.26% (inactive)

Compound: CN(C)CCCn1cc(C2=C(c3c[nH]c4ccccc34)C(=O)NC2=O)c2ccccc21
Result: 2.56% (inactive)

Compound: C#C[C@]1(O)C=C[C@H]2[C@@H]3CCC4=CC(=O)CC[C@@H]4[C@H]3CC[C@@]21CC [gestodene]
Result: 0.01% (inactive)

Compound: CC(Cc1cccc(C(F)(F)F)c1)NCCOC(=O)c1ccccc1 (stereo not given) [benfluorex]
Result: 0.5% (inactive)

Compound: Cc1nc(=O)c2cc(CN(C)c3ccc(C(=O)N[C@@H](CCC(=O)O)C(=O)O)s3)ccc2[nH]1 [raltitrexed]
Result: -0.77% (inactive)

Compound: CC(C)OC(=O)[C@H](C)N[P@](=O)(CO[C@H](C)Cn1cnc2c(N)ncnc21)Oc1ccccc1 [tenofovir-alafenamide]
Result: -2.51% (inactive)
